measurement_protocol: DRUGMATRIX: Purinergic P2X radioligand binding (ligand: [3H] alpha, beta-Methylene-ATP)
Assay type: cell membranes, Oryctolagus cuniculus, New Zealand albino, Urinary bladder, Membrane
experimental_conditions: Not Active = under 50% inhibition at 10 µM
readout: Ki

compound	Ki
CCN(CC)C(=S)SSC(=S)N(CC)CC	Not Active
Cl.NC[C@H]1CC[C@H](C(=O)Oc2ccc(CCC(=O)O)cc2)CC1 [CETRAXATE HYDROCHLORIDE]	Not Active
CS(=O)(=O)c1ccc(C2=C(c3ccccc3)C(=O)OC2)cc1 [ROFECOXIB]	Not Active
CCO [ALCOHOL]	Not Active
CC[C@@]1(O)C(=O)OCc2c1cc1n(c2=O)Cc2cc3c(CN(C)C)c(O)ccc3nc2-1 [TOPOTECAN]	Not Active

Prompt: Find the recorded Ki belonging to CC#C[C@]1(O)CC[C@H]2[C@@H]3CCC4=CC(=O)CCC4=C3[C@@H](c3ccc(N(C)C)cc3)C[C@@]21C [MIFEPRISTONE] and report it.
Completion: Not Active

Prompt: Consider next the compound CNC[C@H](O)c1ccc(O)c(O)c1 [EPINEPHRINE] in the same way.
Completion: Not Active

Prompt: # repeat for CC(N)C12CC3CC(CC(C3)C1)C2 (stereo not given) [RIMANTADINE]
Completion: Not Active

Prompt: How about this compound: COC(=O)Nc1nc2ccc(Sc3ccccc3)cc2[nH]1 [FENBENDAZOLE]
Completion: Not Active

Prompt: # iterate: CC(C)Cc1ccc([C@H](C)C(=O)O)cc1 [DEXIBUPROFEN]
Completion: Not Active

====

measurement_protocol: DRUGMATRIX: GABAA, Chloride Channel, TBOB radioligand binding (ligand: [3H] TBOB)
Type: cell membranes, Rattus norvegicus, Wistar, Cerebral cortex, Membrane
experimental_conditions: Not Active = under 50% inhibition at 10 µM; read-out: IC50
readout: IC50 (nM)
A number alone suffices; assume nM.

Prompt: Please report the recorded IC50 for ClC1=C(Cl)[C@]2(Cl)[C@@H]3[C@@H]4C[C@@H]([C@H]5O[C@@H]45)[C@@H]3[C@@]1(Cl)C2(Cl)Cl .
Completion: 335

====

measurement_protocol: DRUGMATRIX: Calcium Channel Type L, Benzothiazepine radioligand binding (ligand: [3H] Diltiazem)
Assay type: cell membranes, Rattus norvegicus, Wistar, Brain, Membrane
experimental_conditions: Not Active = under 50% inhibition at 10 µM; read-out: IC50
readout: pIC50
In plain terms, pIC50 is the concentration in mol/L turned into minus its base-10 logarithm.

Prompt: So what's the measured pIC50 for this one? CC(N)Cc1c[nH]c2ccc(OCc3cccs3)cc12 (configuration not stated)
Completion: 5.46

Prompt: Follow-up entry: CCOC(=O)C1=C(C)NC(C)=C(C(=O)OCC)C1c1ccccc1/C=C/C(=O)OC(C)(C)C
Completion: 8.26

Prompt: Let us now turn to CC(CN1c2ccccc2Sc2ccccc21)N(C)C (configuration not stated)
Completion: 5.56

Prompt: Subsequent entry: CC[C@H](C)[C@@H](CO[C@@H](Cc1ccccc1)C(=O)N[C@@H](CCS(C)(=O)=O)C(=O)OC(C)C)NC[C@@H](N)CS
Completion: 5.45

Prompt: // repeat for CC#C[C@]1(O)CC[C@H]2[C@@H]3CCC4=CC(=O)CCC4=C3[C@@H](c3ccc(N(C)C)cc3)C[C@@]21C and report
Completion: 4.54

Prompt: And COc1ccccc1OCCNCC(O)COc1cccc2[nH]c3ccccc3c12 (configuration not stated) ?
Completion: 6.21

Prompt: Now consider CN1C[C@H](CNC(=O)OCc2ccccc2)C[C@@H]2c3cccc4c3c(cn4C)C[C@H]21 .
Completion: 6.57
